- MEASUREMENT_PROTOCOL: Clearance in rat
- Format: ADME, organism-based
- CONDITION_LABEL: in vivo
OUTCOME_MEASURE: clearance (mL/min/kg)

Consider the reported clearance for these compounds:
CPD_SMILES	OUTCOME_MEASURE	ENDPOINT_UNIT	OBS_VALUE
Cn1c(-c2noc(C3CCN(C(=O)NC4CCCCC4)CC3)n2)nc2ccccc21	clearance	mL/min/kg	26
Cn1c(-c2noc(N3CCN(C(=O)NC4CCCCC4)CC3)n2)nc2ccccc21	clearance	mL/min/kg	26
O=C(Nc1ccccc1Cl)N1CCC(c2nc(-c3ccc4ccccc4n3)no2)CC1	clearance	mL/min/kg	11
O=C(NC1CCS(=O)(=O)CC1)N1CCC(c2nc(-c3ccc4ccccc4n3)no2)CC1	clearance	mL/min/kg	40

1: O=C(NC1CCCCC1)N1CCN(c2nc(-c3ccc4ccccc4n3)no2)CC1
2: O=C(NC1CCC(F)(F)CC1)N1CCN(c2nc(-c3ccc4ccccc4n3)no2)CC1
Hi, I'm comparing 1 with 2 and wondering which one has the bigger number for clearance. Any idea? Please identify the chosen entry by its label.
1

----------
- MEASUREMENT_PROTOCOL: Lipophilicity, log D of the compound
- Type: physicochemical
- CONDITION_LABEL: octanol/water
OUTCOME_MEASURE: logD

1: O=C(NC1CCC(F)(F)CC1)N1CCN(c2nc(-c3ccc4ccccc4n3)no2)CC1
2: O=C(Nc1ccccc1Cl)N1CCC(c2nc(-c3ccc4ccccc4n3)no2)CC1
Hi, I'm comparing 1 with 2 and wondering which one has the bigger number for logD. Any idea? Please identify the chosen entry by its label.
2

----------
- MEASUREMENT_PROTOCOL: Intrinsic clearance in dog liver microsomes assessed per mg of protein
- Format: ADME, Canis lupus familiaris, Microsome
OUTCOME_MEASURE: microsomal CLint (µL/min/mg)

CPD_SMILES	microsomal CLint (µL/min/mg)
O=C(NC1CCCCC1)N1CCN(c2nc(-c3ccc4ccccc4n3)no2)CC1	54
O=C(Nc1ccccc1Cl)N1CCC(c2nc(-c3ccc4ccccc4n3)no2)CC1	65

----------
- ASSAYED_SYSTEM: Protein smoothened (Homo sapiens)
- MEASUREMENT_PROTOCOL: Displacement of Bodipy-labelled cyclopamine from Smo expressed in COS-1 cells in presence of 2% FBS after 4 to 6 hrs by FACS flow cytometric analysis
- Format: cell-based
OUTCOME_MEASURE: IC50 (nM)

CPD_SMILES	IC50, nM
O=C(Nc1ccccc1Cl)N1CCC(c2nc(-c3cnc4ccccc4n3)no2)CC1	1100

I: O=C(Nc1ccccc1Cl)N1CCC(F)(c2nc(-c3ccc4ccccc4n3)no2)CC1
II: O=C(Nc1ccccc1Cl)N1CCN(c2nc(-c3ccc4ccccc4n3)no2)CC1
Hi, I'm comparing I with II and wondering which one has the bigger number for IC50. Any idea? Please identify the chosen entry by its label.
I
(I: 1000 nM, II: 170 nM)

----------
- ASSAYED_SYSTEM: Protein smoothened (Homo sapiens, UniProt Q99835)
- Sequence (Q99835 whole entry): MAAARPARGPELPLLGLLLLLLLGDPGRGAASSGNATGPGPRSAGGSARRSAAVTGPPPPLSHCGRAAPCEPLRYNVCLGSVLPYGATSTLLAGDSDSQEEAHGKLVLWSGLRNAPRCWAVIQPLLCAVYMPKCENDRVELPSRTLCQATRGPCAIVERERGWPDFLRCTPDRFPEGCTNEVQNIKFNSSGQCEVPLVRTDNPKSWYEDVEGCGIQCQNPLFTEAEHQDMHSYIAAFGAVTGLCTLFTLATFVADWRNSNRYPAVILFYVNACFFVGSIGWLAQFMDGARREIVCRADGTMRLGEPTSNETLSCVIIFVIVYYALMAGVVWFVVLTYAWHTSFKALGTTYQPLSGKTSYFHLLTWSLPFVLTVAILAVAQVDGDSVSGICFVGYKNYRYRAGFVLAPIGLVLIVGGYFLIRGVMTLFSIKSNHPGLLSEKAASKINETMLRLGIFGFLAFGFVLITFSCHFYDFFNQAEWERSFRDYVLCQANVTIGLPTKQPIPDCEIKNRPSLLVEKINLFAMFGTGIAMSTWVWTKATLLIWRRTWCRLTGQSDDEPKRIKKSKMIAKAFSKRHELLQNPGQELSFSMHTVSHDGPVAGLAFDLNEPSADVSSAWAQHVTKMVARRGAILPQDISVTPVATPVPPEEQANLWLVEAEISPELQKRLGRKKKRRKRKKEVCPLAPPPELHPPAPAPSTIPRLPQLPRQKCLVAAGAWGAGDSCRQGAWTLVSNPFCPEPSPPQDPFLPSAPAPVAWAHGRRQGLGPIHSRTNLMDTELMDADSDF
- MEASUREMENT_PROTOCOL: Displacement of Bodipy-labelled cyclopamine from Smo expressed in COS-1 cells in presence of 2% FBS after 4 to 6 hrs by FACS flow cytometric analysis
- Assay type: cell-based
OUTCOME_MEASURE: IC50 (nM)

Consider the reported IC50 for these compounds:
COMPOUND	OUTCOME_MEASURE	ENDPOINT_UNIT	OBS_VALUE
Cc1ccccc1NC(=O)N1CCC(c2nc(-c3ccc4ccccc4n3)no2)CC1	IC50	nM	510
O=C(Nc1ccccc1Cl)N1CCC(c2nc(-c3ccc4ccccc4n3)no2)CC1	IC50	nM	380
COc1cccc(NC(=O)N2CCC(c3nc(-c4ccc5ccccc5n4)no3)CC2)c1	IC50	nM	220

P: O=C(NC1CCCC1)N1CCC(c2nc(-c3ccc4ccccc4n3)no2)CC1
Q: COc1ccccc1NC(=O)N1CCC(c2nc(-c3cc4ccccc4cn3)no2)CC1
Lower IC50: P or Q ? Please identify the chosen entry by its label.
P
(P: 420 nM, Q: 750 nM)

----------
- ASSAYED_SYSTEM: CYP2C9 (Homo sapiens, UniProt P11712)
- MEASUREMENT_PROTOCOL: Inhibition of CYP2C9 at 10 uM
- Assay type: ADME
OUTCOME_MEASURE: inhibition at 10 µM (%)

CPD_SMILES	ASSAYED_SYSTEM	ENDPOINT_UNIT	inhibition at 10 µM
Cn1c(-c2noc(C3CCN(C(=O)Nc4ccccc4Cl)CC3)n2)nc2ccccc21	CYP2C9 (Homo sapiens, UniProt P11712)	%	44
O=C(Nc1ccccc1Cl)N1CCC(c2nc(-c3ccc4ccccc4n3)no2)CC1	CYP2C9 (Homo sapiens, UniProt P11712)	%	62

----------
- ASSAYED_SYSTEM: Cytochrome P450 2C9 (Homo sapiens)
- Sequence (P11712 whole entry): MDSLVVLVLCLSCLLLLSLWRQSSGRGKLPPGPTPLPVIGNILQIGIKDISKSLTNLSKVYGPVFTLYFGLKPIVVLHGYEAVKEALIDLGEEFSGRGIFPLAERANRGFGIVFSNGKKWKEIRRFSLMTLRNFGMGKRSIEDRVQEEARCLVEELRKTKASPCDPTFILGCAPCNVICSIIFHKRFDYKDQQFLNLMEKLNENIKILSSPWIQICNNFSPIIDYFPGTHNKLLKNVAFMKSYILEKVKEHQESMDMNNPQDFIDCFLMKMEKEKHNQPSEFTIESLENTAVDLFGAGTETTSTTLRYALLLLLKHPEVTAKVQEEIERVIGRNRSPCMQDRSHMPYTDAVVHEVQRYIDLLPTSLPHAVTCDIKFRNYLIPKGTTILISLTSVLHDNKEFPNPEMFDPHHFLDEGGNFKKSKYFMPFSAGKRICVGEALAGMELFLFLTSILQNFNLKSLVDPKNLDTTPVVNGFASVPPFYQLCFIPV
pIC50: −log10 of the molar value.
OUTCOME_MEASURE: pIC50

Response field pIC50 (Cytochrome P450 2C9 (Homo sapiens)) for item `O=C(Nc1ccccc1Cl)N1CCN(c2nc(-c3ccc4ccccc4n3)no2)CC1` : < 4.60

----------
- ASSAYED_SYSTEM: Protein smoothened (Homo sapiens)
- MEASUREMENT_PROTOCOL: Displacement of Bodipy-labelled cyclopamine from Smo expressed in COS-1 cells in presence of 2% FBS after 4 to 6 hrs by FACS flow cytometric analysis
- Format: cell-based
OUTCOME_MEASURE: IC50 (nM)

Consider the reported IC50 for these molecules:
CPD_SMILES	IC50 (nM)
O=C(N1CCC(c2nc(-c3ccc4ccccc4n3)no2)CC1)N1CCCc2ccccc21	670
CN1CCC(NC(=O)N2CCC(c3nc(-c4ccc5ccccc5n4)no3)CC2)CC1	3400
CC(=O)N1CCC(NC(=O)N2CCC(c3nc(-c4ccc5ccccc5n4)no3)CC2)CC1	2300
Cn1c(-c2noc(N3CCN(C(=O)NC4CCC(F)(F)CC4)CC3)n2)nc2ccccc21	7

1: Cn1c(-c2noc(C3CCN(C(=O)NC4CCCCC4)CC3)n2)nc2ccccc21
2: O=C(CC1CCCCCC1)N1CCC(c2nc(-c3ccc4ccccc4n3)no2)CC1
Lower IC50: 1 or 2 ? Please identify the chosen entry by its label.
1
(1: 350 nM, 2: 1000 nM)

A: CS(=O)(=O)c1ccc(Cl)c(NC(=O)N2CCC(c3nc(-c4ccc5ccccc5n4)no3)CC2)c1
B: N#Cc1ccc(NC(=O)N2CCC(c3nc(-c4ccc5ccccc5n4)no3)CC2)c(Cl)c1
Lower IC50: A or B ? Please identify the chosen entry by its label.
A

I: O=C(Nc1cccc2cccnc12)N1CCC(c2nc(-c3ccc4ccccc4n3)no2)CC1
II: COc1ccccc1NC(=O)N1CCC(c2nc(-c3cnc4ccccc4c3)no2)CC1
III: O=C(Nc1ccccc1)N1CCC(c2nc(-c3ccc4ccccc4n3)no2)CC1
Parameters: sort_field (IC50), sort_dir (desc). Form entry: labels listed in requested order.
II, I, III
(II: 1900 nM, I: 1300 nM, III: 480 nM)

----------
- ASSAYED_SYSTEM: Cytochrome P450 3A4 (Homo sapiens, UniProt P08684)
- Sequence (P08684 whole entry): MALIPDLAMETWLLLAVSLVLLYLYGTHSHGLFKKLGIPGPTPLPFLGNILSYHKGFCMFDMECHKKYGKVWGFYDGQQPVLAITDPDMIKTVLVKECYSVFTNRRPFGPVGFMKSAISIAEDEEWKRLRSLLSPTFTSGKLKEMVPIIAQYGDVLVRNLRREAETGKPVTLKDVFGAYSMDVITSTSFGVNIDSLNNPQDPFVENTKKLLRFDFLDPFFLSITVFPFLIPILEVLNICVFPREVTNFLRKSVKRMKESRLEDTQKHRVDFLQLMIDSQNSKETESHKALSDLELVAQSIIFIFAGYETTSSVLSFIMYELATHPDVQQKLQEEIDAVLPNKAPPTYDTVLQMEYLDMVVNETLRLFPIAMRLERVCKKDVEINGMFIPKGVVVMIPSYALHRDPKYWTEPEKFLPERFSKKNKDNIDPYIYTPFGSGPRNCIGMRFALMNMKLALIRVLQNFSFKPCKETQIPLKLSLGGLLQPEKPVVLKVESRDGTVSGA
OUTCOME_MEASURE: IC50

Recorded IC50 (compound `O=C(Nc1ccccc1Cl)N1CCN(c2nc(-c3ccc4ccccc4n3)no2)CC1` ): > 25 µM

----------
- ASSAYED_SYSTEM: Protein smoothened (Homo sapiens, UniProt Q99835)
- MEASUREMENT_PROTOCOL: Inhibition of Bodipy-labelled cyclopamine binding to Smo expressed in COS-1 cells in presence of 20% NHS after 4 to 6 hrs by FACS flow cytometric analysis
- Type: cell-based
OUTCOME_MEASURE: IC50 (nM)

Consider the reported IC50 for these molecules:
MOLECULE	OUTCOME_MEASURE	OBS_VALUE
O=C(NC1CCCCC1)N1CCC(c2nc(-c3ccc4ccccc4n3)no2)CC1	IC50	1600
O=C(NC1CCCCC1)N1CCN(c2nc(-c3ccc4ccccc4n3)no2)CC1	IC50	180
CC(=O)N1CCC(NC(=O)N2CCC(c3nc(-c4ccc5ccccc5n4)no3)CC2)CC1	IC50	1300

P: O=C(Nc1ccccc1Cl)N1CCN(c2nc(-c3ccc4ccccc4n3)no2)CC1
Q: O=C(NC1CCS(=O)(=O)CC1)N1CCC(c2nc(-c3ccc4ccccc4n3)no2)CC1
R: Cn1c(-c2noc(C3CCN(C(=O)NC4CCCCC4)CC3)n2)nc2ccccc21
Please produce an ascending ranking of these molecules based on IC50. Form entry: labels listed in requested order.
P, R, Q
(P: 700 nM, R: 1100 nM, Q: 1600 nM)

I: O=C(NC1CCC(F)(F)CC1)N1CCC(c2nc(-c3ccc4ccccc4n3)no2)CC1
II: O=C(NC1CC[S+]([O-])CC1)N1CCC(c2nc(-c3ccc4ccccc4n3)no2)CC1 (centres undefined)
Lower IC50: I or II ? Please identify the chosen entry by its label.
I
